EXPERIMENTAL SYSTEM: T1, Hof1, Q05080
T1 sequence (Q05080 590-669, looked up): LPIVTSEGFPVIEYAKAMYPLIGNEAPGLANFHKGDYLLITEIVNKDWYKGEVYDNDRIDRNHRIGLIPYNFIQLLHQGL
TEST PROTOCOL: SPOT array
TEST SETTINGS: median of control spots 4086
RECORDED METRIC: SPOT intensity

The value of SPOT intensity measured for the binder NQARKPFLLPATELS turned out to be 5

The value of SPOT intensity measured for the binder FYNRTAFQLPGDARV turned out to be 0

P. GPPPPLPPPLFPSSS
Q. GKFIPSRPAPKPPSS
R. GRSRLFPHSPLGRSS
# rank_down: sort by SPOT intensity, max first Response field: labels, in requested order.
P, R, Q
(P: 1690, R: 14, Q: 0)

I. APPPPPRRATPEKKP
II. QLLNPNRRAPRRPLS
Pick one: I or II . Which one has the lower reported SPOT intensity? Reply briefly: the label of your chosen item.
I

# credit: paper PMC2756588
